B1: RAB40B (parent)
chain: YSLTTSSTHKRSSLRKVKLVRPPQ

# Variants of: B1
# test.details: protein stability index of a GFP-peptide fusion (GPS, HEK-293T) (PSI 1-6); higher = more stable;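 further: lentivirally expressed fusions sorted by FACS into six bins by GFP to DsRed ratio, PSI derived from sequencing read proportions per bin multiplied by bin number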
# experimental.setup: c terminus: a fixed tail appended
protein stability index values by entry

The cases that follow already have their protein stability index on record.
YSLVTSSTHKRSSLRKVKLVRPPQ [T4V]
2.7
YSLTTSSTHKRSSLRKVKLVRPQQ [P23Q]
3.08
YSLTTSSTHKRSSLRKVKLVRIPQ [P22I]
2.27

protein stability index reading for YSLTTSSTHKRSSLRKVKLVRPPK [Q24K] : 2.75

protein stability index reading for YSLTTSSTHKRSSLRVVKLVRPPQ [K16V] : 2.1

protein stability index reading for YSLTTSSTDKRSSLRKVKLVRPPQ [H9D] : 3.22

protein stability index reading for YSLTTSSTHKRSSLRKVKLVTPPQ [R21T] : 2.76

protein stability index reading for YSLTTSLTHKRSSLRKVKLVRPPQ [S7L] : 2.81
